src = PubChem BioAssay AID2685

assay: qHTS Assay for Lipid Storage Modulators in Drosophila S3 Cells; details: BODIPY lipid droplet fluorescence, 18-24 h, cells fed with added oleic acid; series mostly up to 46.1 µM
In all, about 320,000 compounds went through this assay and about 2,100 (0.66%) were called active. About 53% were inconclusive and are not listed. Calls follow the shape of the dose curve; as a rule, active = well fitted inhibition curve with a large enough effect in the signal ratio, with a control signal flat (not every such curve was filed as active); inconclusive = small, poorly fitted or top-dose-only effect, or effect the other way, or a change in a side signal; inactive = flat fitted curve, though single readings scatter; the % refers to the signal ratio. The full list was thinned out, with actives kept by preference.
Valid outcomes are listed here; reply with one: y = active, n = inactive

>>> cat("COc1ccc(CNc2nc(S(=O)(=O)c3ccccc3)c(Cl)s2)cc1OC")
"n"
>>> cat("CC(C)(C)CC(=O)Nc1nn[nH]n1")
"n"
>>> cat("O=C(Nc1cc2c(cc1Br)OCCO2)c1cccnc1")
"n"
>>> cat("COc1cnc(-c2ccccc2)nc1Sc1ccccc1")
"n"
>>> cat("O=C(CCc1nnc(C2(c3ccc(Cl)cc3)CCC2)o1)NC1CC1")
"n"

## Input What classification did CN(C)CCOc1ccccc1-c1ccccc1 end up with in this test?
## Output y

## Input // next record CCc1ccc(C(C(=O)NCc2ccc(F)cc2)N(C(=O)c2csnn2)C2CC2)cc1 (configuration not stated)
## Output n

## Input // next record CCCn1cc2c(c1-c1ccc(C)cc1)c(=O)n(C)c(=O)n2C
## Output n

## Input // next record COc1ccccc1NC(=O)C(C/C=C(/C)Cl)C(C)=O (configuration not stated)
## Output n

## Input // next record COc1ccc(C(=O)NCc2oc(-c3ccccc3)cc2C(=O)O)cc1
## Output n

## Input // next record CN(C)CCOCCOc1ccccc1-c1ccccc1
## Output n

## Input // next record CN(C)CCCCOc1ccccc1-c1ccccc1
## Output n

---

test: qHTS Assay for Lipid Storage Modulators in Drosophila S3 Cells; conditions: BODIPY lipid droplet fluorescence, 18-24 h, cells fed with added oleic acid; measured here: cell count max response;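 as to cell number change: cells counted by Cell Tracker Red CMTPX staining in the red channel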
Out of some 320,000 compounds screened, about 2,100 (0.66%) were called active. Roughly 53% stayed inconclusive and do not appear here. Many of the other results were omitted from the sample, so actives are more common in it than they were.
molecules and their reported cell number change
Number only, in %; omit the unit.

Here's what some known entries look like.
>>> val("CCCNC(=O)Cn1c(=O)n(CC(=O)N2CCCCC2)c(=O)c2sccc21")
-0.943
>>> val("CCOC(=O)N1CCN(C(=O)CN(c2cccc(C)c2)S(=O)(=O)c2ccc(C)cc2)CC1")
6.11
>>> val("Cc1nc(SCC(=O)NC(=O)NCCC(C)C)c2c(-c3cccs3)csc2n1")
8.46

## Input What value of measured cell number change is listed for CN(CCc1ccccn1)Cc1ccc(Cl)cc1 ?
## Output 7.49

## Input // next record CN(CCc1ccccn1)Cc1ccc(Cl)c(Cl)c1
## Output -4.68

## Input // next record Cc1ccc(Cc2cnc(NC(=O)c3cccs3)s2)cc1
## Output -12.1

---

molecules and their reported cell number change
experiment: qHTS Assay for Lipid Storage Modulators in Drosophila S3 Cells; settings: BODIPY lipid droplet fluorescence, 18-24 h, cells fed with added oleic acid; measured here: cell count max response;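 as to cell number change: cells counted by Cell Tracker Red CMTPX staining in the red channel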
In all, about 320,000 compounds went through this assay and about 2,100 (0.66%) were called active. Not shown: some 53% with an inconclusive outcome. The entries come from a sample that favours actives as a whole.
Number only, in %; omit the unit.

>>> val("Cc1nc2ccccc2n1CCOc1ccc(F)cc1")
-21.4
>>> val("CCCCCCSc1cccc(-c2nc3cc(C)ccn3c2NC2CCCCC2)c1")
-11.8
>>> val("Cc1ccc(-c2nc(C)sc2CC(=O)Nc2cccc(C)c2C)cc1")
6.08
>>> val("COc1ccc(N2C(=S)NC3CS(=O)(=O)CC32)cc1 (stereo not drawn)")
0.125
>>> val("CCOC(=O)c1sc2nc(CSc3nc4ccccc4n3CC)[nH]c(=O)c2c1C")
-16.4

## Input What value of measured cell number change is listed for Cc1ccc(S(=O)(=O)C2(C(=O)N3CCN(c4ccccc4F)CC3)CC2)cc1 ?
## Output -5.26

## Input // next record Cc1ccc(C2(C)NC(=O)N(CC(=O)Nc3ccc4c(c3)CCC4)C2=O)cc1 (stereo not drawn)
## Output -12.5

## Input // next record CCNc1nc(NCC)n2c(SCC(=O)O)nnc2n1
## Output -12

## Input // next record CC(C)CC(=O)Nc1ccc(C(=O)CN2CCN(c3ccc(O)cc3)CC2)cc1
## Output -10.4

## Input // next record CCn1nc(C)cc1C(=O)N1CCc2c([nH]c3ccccc23)C1c1cc(F)ccc1F (stereo not drawn)
## Output 8.47

## Input // next record Cc1cccc(N2CC3=C(C2=O)C(c2ccccc2)NC(=O)N3C)c1 (stereo not drawn)
## Output 28.8

---

assay: qHTS Assay for Lipid Storage Modulators in Drosophila S3 Cells; conditions: BODIPY lipid droplet fluorescence, 18-24 h, cells fed with added oleic acid; measured here: cell count max response;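 as to cell number change: cells counted by Cell Tracker Red CMTPX staining in the red channel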
The whole screen tested about 320,000 compounds, of which about 2,100 (0.66%) were called active. Inconclusive results (about 53%) are left out. This is one part of a sample in which actives are shown more often than they occur.
ASSAY_READOUT: cell number change (%)
Number only, in %; omit the unit.

Here's what some known entries look like.
>>> val("Nc1[nH]nc2nc(N3CCOCC3)nc(-c3ccccc3)c12")
-23.8
>>> val("COC(=O)c1ccccc1N1CCS(=O)(=O)CC1")
-18.8
>>> val("CCC(C(=O)NCc1ccco1)N(C(=O)CNS(=O)(=O)c1ccc(C)cc1)c1ccccc1F (stereo unspecified)")
11.8
>>> val("CCC(C(=O)NCc1ccco1)N(C(=O)CNS(=O)(=O)c1ccc(C)cc1)c1ccccc1OC (stereo unspecified)")
-11.8

## Input What value of measured cell number change is listed for Cc1ccc(OCC(O)CN2CCN(CCO)CC2)c(C)c1 (stereo unspecified) ?
## Output 3.63

## Input // next record CCN(CC)CCNC(=O)c1ccccc1C(=O)c1ncc[nH]1
## Output -16.6

## Input // next record O=S(=O)(NC1CC1)c1ccc(S(=O)(=O)N2CCN3CCCC3C2)cc1 (stereo unspecified)
## Output -22

## Input // next record CCN(CC)CCNC(=O)c1cc(Br)c(N)cc1OC
## Output 6.76

## Input // next record CCN(CC)CCNC(=O)c1ccccc1N
## Output -10.7

## Input // next record Cc1ccn(CC(C)C(=O)O)n1 (stereo unspecified)
## Output 3.92

## Input // next record COCCCNC(=O)Cc1c(C)c2cc3c(cc2oc1=O)OC(C)(C)CC3
## Output -2.78

---

test: qHTS Assay for Lipid Storage Modulators in Drosophila S3 Cells; conditions: BODIPY lipid droplet fluorescence, 18-24 h, cells fed with added oleic acid; measured here: cell count max response;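 as to cell number change: cells counted by Cell Tracker Red CMTPX staining in the red channel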
The whole screen tested about 320,000 compounds, of which about 2,100 (0.66%) were called active. Inconclusive results (about 53%) are left out. This excerpt belongs to a sample that is enriched for actives.
compounds and their reported cell number change
Number only, in %; omit the unit.

Here's what some known entries look like.
>>> val("Cc1cccc(NC(=O)c2ccc(-c3ccccc3[N+](=O)[O-])o2)c1")
15.3
>>> val("Cc1ccc2nsnc2c1NC(=O)c1cccc([N+](=O)[O-])c1")
3.04
>>> val("Cc1cc(C)cc(NC(=O)c2ccc([N+](=O)[O-])o2)c1")
-11.8
>>> val("COc1cc(NC(=O)c2ccc([N+](=O)[O-])o2)ccc1NC(=O)c1ccco1")
-26.2

## Input What value of measured cell number change is listed for COc1cc(NC(=O)c2cccc([N+](=O)[O-])c2)ccc1NC(=O)c1ccco1 ?
## Output -8.46

---

test: qHTS Assay for Lipid Storage Modulators in Drosophila S3 Cells; conditions: BODIPY lipid droplet fluorescence, 18-24 h, cells fed with added oleic acid; series mostly up to 46.1 µM; also: potency is read from the fitted curve at half-maximal effect
About 2,100 (0.66%) of roughly 320,000 compounds were called active. About 53% were inconclusive and are not listed. The sample holds actives, similar compounds and a random draw of the others, so the mix is not that of the screen.
ASSAY_READOUT: Potency

>>> val("CCNC(=S)Nc1cccc([N+](=O)[O-])c1")
"inactive"
>>> val("Cc1ccccc1OCCC(=O)OCC(=O)Nc1ccc(C(N)=O)cc1")
"inactive"
>>> val("CC(=O)Nc1ccc(S(=O)(=O)NNC(=O)CCC(=O)Nc2cc(C)ccc2C)cc1")
"2.31 µM (active)"
>>> val("O=[N+]([O-])c1cc(N=Nc2ccc3ccccc3c2)ccc1O")
"inactive"
>>> val("CCOc1ccc(-n2ccnc(SCC(=O)NC3CCCC3)c2=O)cc1")
"inactive"

## Input What value of measured Potency is listed for CN(C)c1ccc(C(=O)/C=C/c2cccnc2)cc1 ?
## Output inactive

## Input // next record Cc1cc(NC(=O)CCC(=O)N(CC(=O)NCC2CCCO2)c2ccc(Cl)c(Cl)c2)no1 (stereo not drawn)
## Output inactive

## Input // next record N/C(Cc1ccc([N+](=O)[O-])cc1)=N\OC(=O)c1ccc(Br)cc1
## Output 8.2 µM (active)

## Input // next record CN(C)S(=O)(=O)c1ccc(C(=O)/C=C/c2cccnc2)cc1
## Output 0.326 µM (active)

## Input // next record CC(C)[C@H](NC(=O)C1(c2ccccc2)CCN(C(=O)OC(C)(C)C)CC1)C(=O)O
## Output inactive

## Input // next record CCOc1ccc(C(=O)NC(C(=O)NCC(c2cccs2)N(C)C)C(C)C)cc1 (stereo not drawn)
## Output inactive

## Input // next record CC(C)=CCN1CCN(Cc2cnc(-c3ccccc3)s2)CC1CCO (stereo not drawn)
## Output inactive
